tested on: transactivating tegument protein VP16 (Human herpesvirus 1), Gal4-VP16 luciferase reporter; test: VP16 transactivation inhibitors, counter-screen for SRC3 inhibitor project, cell-based, luminescence, high throughput (AID 588794); details: mammalian cells, VP16-driven luciferase reporter luminescence; at 3.6 µM
Calls of active or inactive are those of the source. Cut-off read from the data, not from the text of the source: active = inhibition above about 30%; inactive = the rest.
Outcome codes: active, inactive

molecule=Cc1ccc(S(=O)(=O)NCCC(=O)Nc2ccncc2)cc1C targetundertest="transactivating tegument protein VP16 (Human herpesvirus 1), Gal4-VP16 luciferase reporter" labelvalue=inactive
molecule=C/C(=N\NC(=O)c1nnn(-c2nonc2N)c1-c1ccccc1)c1ccccc1O targetundertest="transactivating tegument protein VP16 (Human herpesvirus 1), Gal4-VP16 luciferase reporter" labelvalue=active
molecule=CCn1c2ccccc2c2cnc(N=CN(C)C)c(C#N)c21 targetundertest="transactivating tegument protein VP16 (Human herpesvirus 1), Gal4-VP16 luciferase reporter" labelvalue=inactive
molecule=Cc1ccc(S(=O)(=O)N2CCOCC2)cc1C(=O)Nc1cc(S(=O)(=O)N2CCCCC2)ccc1O targetundertest="transactivating tegument protein VP16 (Human herpesvirus 1), Gal4-VP16 luciferase reporter" labelvalue=inactive
molecule=c1ccc(CNc2ncnc3ccccc23)cc1 targetundertest="transactivating tegument protein VP16 (Human herpesvirus 1), Gal4-VP16 luciferase reporter" labelvalue=active
molecule="CC1Sc2ccc(Cl)cc2-c2nc(N)ncc21 (stereo unspecified)" targetundertest="transactivating tegument protein VP16 (Human herpesvirus 1), Gal4-VP16 luciferase reporter" labelvalue=active
